Target: Alkaline phosphatase, placental type (Homo sapiens) (UniProt P05187)
Sequence (P05187 whole entry, looked up): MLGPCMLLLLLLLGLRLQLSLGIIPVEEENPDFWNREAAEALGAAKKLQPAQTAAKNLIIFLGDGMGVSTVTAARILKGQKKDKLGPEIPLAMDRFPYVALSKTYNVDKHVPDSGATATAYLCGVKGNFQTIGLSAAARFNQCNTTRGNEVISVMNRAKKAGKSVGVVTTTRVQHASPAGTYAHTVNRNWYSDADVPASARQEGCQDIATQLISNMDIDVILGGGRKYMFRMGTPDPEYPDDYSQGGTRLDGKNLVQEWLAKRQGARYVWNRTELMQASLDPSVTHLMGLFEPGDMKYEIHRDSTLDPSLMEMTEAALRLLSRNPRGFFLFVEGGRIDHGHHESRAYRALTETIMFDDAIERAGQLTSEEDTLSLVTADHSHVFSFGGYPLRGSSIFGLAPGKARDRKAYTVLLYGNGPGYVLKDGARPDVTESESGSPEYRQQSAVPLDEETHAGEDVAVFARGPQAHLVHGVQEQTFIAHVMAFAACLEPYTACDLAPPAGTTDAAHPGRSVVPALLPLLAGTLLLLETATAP
Assay: PLAP enzyme inhibitors, biochemical, luminescence, HTS (AID 690)
Details: purified PLAP, luminescent substrate; at 20 µM; stronger effect = higher value
Hit rate of the full screen: of about 96,000 compounds, about 80 (0.08%) were called active. A selection follows. Measured potencies and affinities stand elsewhere.
measured metric: inhibition

Check out these entries, answers already filled in.
# molecule, measured metric, observed value
data = [
    ("CCOc1ccc(C(CCc2ccccc2)NC(=O)c2ccccc2OC)cc1OCC (stereo not given)", "inhibition", "-15.5% (inactive)"),
    ("CCOc1ccc(CSC(=N)N)cc1[N+](=O)[O-]", "inhibition", "-79.6% (inactive)"),
    ("Cc1ccc(Cn2nnnc2CN2CCC(c3nc4ccc(Cl)cc4[nH]3)CC2)cc1", "inhibition", "-87.9% (inactive)"),
]

What measured inhibition goes with COC(=O)c1ccc2c(c1)C(C)(C)C(/C=C/c1ccc(OC)c(OC)c1OC)=[N+]2C ?
-29.3% (inactive)

Record request: inhibition value, item CCN1C(=C2C(=O)c3ccccc3C2=O)C=Cc2ccccc21
46.7% (inactive)

What inhibition value was documented for this molecule, Cc1cccc(NC(=O)C2c3ccccc3C(=O)N3CCc4ccccc4C23)n1 (stereo not given) ?
2.2% (inactive)

So what's the measured inhibition for this one? CC(O)CNc1nc2c(c(=O)n(C)c(=O)n2C)n1C/C=C/c1ccccc1 (stereo not given)
-20.9% (inactive)

Looking for the measured inhibition of O=C(Nc1ccc(Br)cc1)c1cnccn1 , can you help?
-8.2% (inactive)

Would you kindly share the measured inhibition for CCCC1CCc2c(c3ccccc3[nH]c2=O)O1 (stereo not given) ?
-5% (inactive)

Param item = COC(=O)CN1C(=O)S/C(=C/c2ccc(N3CCCCC3)o2)C1=O ; retrieve measured inhibition.
-25.9% (inactive)

// inhibition lookup, key: COc1ccc(-c2noc(-c3ccc(Br)o3)n2)cc1OC
29% (inactive)

Look up inhibition: Cc1cc(-c2nnc(SCC(=O)N3C(C)CCCC3C)o2)no1 (stereo not given)
0.5% (inactive)

The reported numbers originate from PubChem BioAssay AID690.
